From: patent US20090275780A1

Test: Particle size distribution by Malvern Mastersizer S particle size analyzer
Type: physicochemical
Conditions: before milling; listed as Cinacalcet hydrochloride from Example 9, hydrochloride
reported-property: BEFORE MILLING D[v, 0..5] (µm)
Answer with a number only, understood to be in µm.

Fill in reported BEFORE MILLING D[v, 0..5] for this entry: C[C@@H](NCCCc1cccc(C(F)(F)F)c1)c1cccc2ccccc12.Cl [Example 9, cinacalcet hydrochloride]
74

* * *

Test: Particle size distribution by Malvern Mastersizer S particle size analyzer
Assay type: physicochemical
Settings: crystals as isolated after crystallization from isobutyl acetate and drying; by volume, mean of nine readings; hydrochloride
# reported particle size D[v, 0.5]; entries follow
# unit: μm | format: bare number

Example entries begin here.
{"columns": ["molecule", "particle size D[v, 0.5] / μm"],
 "data": [
  ["C[C@@H](NCCCc1cccc(C(F)(F)F)c1)c1cccc2ccccc12.Cl [Example 6, cinacalcet hydrochloride]", 65.0],
  ["C[C@@H](NCCCc1cccc(C(F)(F)F)c1)c1cccc2ccccc12.Cl [Example 9, cinacalcet hydrochloride]", 74.0],
  ["C[C@@H](NCCCc1cccc(C(F)(F)F)c1)c1cccc2ccccc12.Cl [Example 4, cinacalcet hydrochloride]", 57.7]
]}

Recall and state the measured particle size D[v, 0.5] for C[C@@H](NCCCc1cccc(C(F)(F)F)c1)c1cccc2ccccc12.Cl [Example 3, cinacalcet hydrochloride] .
49.8

Identify measured particle size D[v, 0.5] corresponding to C[C@@H](NCCCc1cccc(C(F)(F)F)c1)c1cccc2ccccc12.Cl [Example 2, cinacalcet hydrochloride]
20.7

Using known records, supply particle size D[v, 0.5] for C[C@@H](NCCCc1cccc(C(F)(F)F)c1)c1cccc2ccccc12.Cl [Example 7, cinacalcet hydrochloride]
70.3

Give the reported particle size D[v, 0.5] for this molecule. C[C@@H](NCCCc1cccc(C(F)(F)F)c1)c1cccc2ccccc12.Cl [Example 5, cinacalcet hydrochloride]
76.4

Specify measured particle size D[v, 0.5] for C[C@@H](NCCCc1cccc(C(F)(F)F)c1)c1cccc2ccccc12.Cl [Example 11, cinacalcet hydrochloride] .
99.8

Using known records, supply particle size D[v, 0.5] for C[C@@H](NCCCc1cccc(C(F)(F)F)c1)c1cccc2ccccc12.Cl [Example 1, cinacalcet hydrochloride]
23.4

Provide measured particle size D[v, 0.5] value, entry: C[C@@H](NCCCc1cccc(C(F)(F)F)c1)c1cccc2ccccc12.Cl [Example 8, cinacalcet hydrochloride]
67.2

* * *

Test: Particle size distribution by Malvern Mastersizer S particle size analyzer
Assay type: physicochemical
Settings: crystals as isolated after crystallization from isobutyl acetate and drying; by volume, mean of nine readings; hydrochloride
Procedure: The particle size for cinacalcet hydrochloride was measured using a Malvern Mastersizer S particle size analyzer with an MS1 Small Volume Sample Dispersion Unit stirred cell. A 300RF mm lens and a beam length of 2.4 mm were used. […] Nine repeated readings of the volume distributions were taken. For characterization, the values of D50 and D90 (by volume) were selected and reported as the mean of the nine values measured.
reported-property: particle size D[v, 0.9] (μm)
Write the answer as a number in μm, unit excluded.

# example entries with known answers
{"columns": ["molecule", "unit-abbreviation", "particle size D[v, 0.9]"],
 "data": [
  ["C[C@@H](NCCCc1cccc(C(F)(F)F)c1)c1cccc2ccccc12.Cl [Example 5, cinacalcet hydrochloride]", "μm", 456.0],
  ["C[C@@H](NCCCc1cccc(C(F)(F)F)c1)c1cccc2ccccc12.Cl [Example 7, cinacalcet hydrochloride]", "μm", 431.7],
  ["C[C@@H](NCCCc1cccc(C(F)(F)F)c1)c1cccc2ccccc12.Cl [Example 4, cinacalcet hydrochloride]", "μm", 403.9],
  ["C[C@@H](NCCCc1cccc(C(F)(F)F)c1)c1cccc2ccccc12.Cl [Example 8, cinacalcet hydrochloride]", "μm", 459.0],
  ["C[C@@H](NCCCc1cccc(C(F)(F)F)c1)c1cccc2ccccc12.Cl [Example 9, cinacalcet hydrochloride]", "μm", 518.3]
]}

Using known records, supply particle size D[v, 0.9] for C[C@@H](NCCCc1cccc(C(F)(F)F)c1)c1cccc2ccccc12.Cl [Example 11, cinacalcet hydrochloride]
466.9

Consider the molecule C[C@@H](NCCCc1cccc(C(F)(F)F)c1)c1cccc2ccccc12.Cl [Example 6, cinacalcet hydrochloride] . State its measured particle size D[v, 0.9].
392.3
